Target: T1, human IL-13 wild type (human, UniProt P35225 35-146)
T1 construct: also called h IL-13; h IL-13 wt
T1 sequence (P35225 other isoform, or with tags, fused parts or gaps limits assumed): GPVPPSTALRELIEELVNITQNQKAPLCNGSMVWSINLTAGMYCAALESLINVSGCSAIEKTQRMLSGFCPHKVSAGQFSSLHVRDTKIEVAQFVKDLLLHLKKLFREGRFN
Test: SPR (Biacore), mAb captured, IL-13 as analyte
READOUT_TYPE: koff (s⁻¹)
Hi! Could you send only the number? It should be in s⁻¹, unit omitted.

[[record]]
binder = "8B6 (antibody, V domains shown) VH: QVQLKESGPGLVAPSQSLSITCTVSGFSLTGHNINWVRQPPGKGLEWLGMIWGDGNTDFNSALKSRLSISKDNSKSQVFLKLNSLQTDDTARYYCARDGYYPYAIKFWGQGTSVTVSS VL: HIVLTQSPASLAVSLGQRATISCRASETVDSYGSSFLHWYQQKPGQPPKLLIYLASKLESGVPARFSGSGSRTDFTLTIDPVEADDAATYYCQQNNEGPRTFGGGSKLEIKR"
readout_type = "koff"
measurement = 0.000607


Turning now to a further record.
33C3 (antibody, V domains shown) VH: QVTLKESGPGILQPSQTLSLTCSFSGFSLSTSDLGVGWIRQPSGKGLEWLAHIWWDDVKRYNPALKSRLTISKDTSSSQVFLMIASVDTADTATYYCARIGSSGYIYYEMDYWGQGTSVTVSS VL: DIQMTQTTSSLSASLGDRVTITCRASQDIRNYLNWYQQKPDGTVKLLIYYTSRLHSGVPSRFSGSGSGTDYSLTISNLDQEDIATYFCQQGNTLPLTFGGGTRLEIKR has a reported koff of 0.000149

Where do the numbers come from? From patent US20110165066A1.
